Molecular target: CDK4/Cyclin D1 (Homo sapiens, UniProt P11802)
Sequence (P11802 whole entry): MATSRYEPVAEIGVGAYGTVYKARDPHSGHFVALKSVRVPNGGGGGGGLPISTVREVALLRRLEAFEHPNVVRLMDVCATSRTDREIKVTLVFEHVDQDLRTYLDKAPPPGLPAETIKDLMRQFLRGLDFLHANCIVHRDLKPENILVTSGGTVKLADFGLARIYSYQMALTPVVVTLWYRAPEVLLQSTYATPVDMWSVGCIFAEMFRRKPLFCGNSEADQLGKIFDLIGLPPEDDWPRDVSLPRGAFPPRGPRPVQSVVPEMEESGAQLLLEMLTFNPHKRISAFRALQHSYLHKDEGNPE
Sequence (P24385 whole entry partner): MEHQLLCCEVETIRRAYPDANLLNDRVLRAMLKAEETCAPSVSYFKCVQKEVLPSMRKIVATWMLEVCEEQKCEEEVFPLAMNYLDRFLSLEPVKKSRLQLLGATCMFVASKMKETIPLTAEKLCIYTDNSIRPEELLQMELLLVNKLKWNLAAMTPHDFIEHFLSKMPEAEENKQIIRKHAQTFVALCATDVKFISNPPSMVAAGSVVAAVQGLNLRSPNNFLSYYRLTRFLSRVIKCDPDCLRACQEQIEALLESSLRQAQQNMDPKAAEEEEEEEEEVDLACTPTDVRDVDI
Assay: CDK4/CyclinD1 enzymatic activity assay (TR-FRET)
Conditions: ATP 2 mM final, read-out: CDK4_D1 IC50
Method: CDK4/CyclinD1 Enzymatic Activity Assay The inhibitory activity of compounds was evaluated in vitro using TR-FRET assay with white 384-well low volume microplate (Greiner Bio-One). CDK4/Cyclin D1 catalyzed phosphorylation of peptide in the presence and absence of compounds was measured and used in IC50 determination. […] The reaction signal was measured by Envision multimode plate reader (PerkinElmer, 2102-0010). […]
IC50 for assorted molecules

Solved entries (count: 4):
Cn1cc(S(=O)(=O)N2CCC(Nc3ncc(C(F)(F)F)c(-c4cc5c(s4)CNC5=O)n3)CC2)cn1 [Example 20]	≤ 0.1 µM
Cc1c(-c2nc(NC3CCN(S(C)(=O)=O)CC3)ncc2F)sc2c1C(=O)NC2(C)C [Example 3]	≤ 0.1 µM
Cn1cnc(S(=O)(=O)N2CC[C@H](Nc3ncc(C(F)(F)F)c(-c4cc5c(s4)C(C)(C)NC5=O)n3)[C@H](F)C2)c1 [Example 15]	≤ 0.1 µM
Cc1c(-c2nc(N[C@H]3CCN(S(C)(=O)=O)C[C@H]3C)ncc2F)sc2c1C(=O)NC2(C)C [Example 1]	≤ 0.1 µM

Q: Please indicate IC50 recorded for C[C@@H]1CN(S(=O)(=O)c2cnn(C)c2)CC[C@@H]1Nc1ncc(C(F)(F)F)c(-c2cc3c(s2)C(C)(C)NC3=O)n1 [Example 7]
Result: ≤ 0.1 µM

Q: Please indicate IC50 recorded for C[C@@H]1CN(S(=O)(=O)c2cnn(C)c2)CC[C@@H]1Nc1ncc(C(F)(F)F)c(-c2cc3c(s2)CNC3=O)n1 [Example 21]
Result: ≤ 0.1 µM

Q: Please indicate IC50 recorded for CC1(C)NC(=O)c2cc(-c3nc(N[C@H]4CCN(S(C)(=O)=O)C[C@H]4F)ncc3C(F)(F)F)sc21 [Example 14]
Result: ≤ 0.1 µM

* * *

tested on: OVCAR3 p-RB; assay: pRB ICW assay in OVCAR3 cells; format: cell-based; details: Homo sapiens, OVCAR-3, 2 hours incubation with compound
measured.metric: IC50

Solved entries (count: 3):
CS(=O)(=O)N1CCC(Nc2ncc(C(F)(F)F)c(-c3cc4c(s3)CNC4=O)n2)CC1 [Example 17]	≤ 100 nM
CS(=O)(=O)N1CC[C@H](Nc2ncc(C(F)(F)F)c(-c3cc4c(s3)CNC4=O)n2)[C@H](F)C1 [Example 19]	≤ 100 nM
C[C@@H]1CN(S(=O)(=O)c2cnn(C)c2)CC[C@@H]1Nc1ncc(C(F)(F)F)c(-c2cc3c(s2)C(C)(C)NC3=O)n1 [Example 7]	≤ 100 nM

Q: Please indicate IC50 recorded for C[C@@H]1CN(S(C)(=O)=O)CC[C@@H]1Nc1ncc(C(F)(F)F)c(-c2cc3c(s2)C(C)(C)NC3=O)n1 [Example 6]
Result: ≤ 100 nM

* * *

IC50 for assorted compounds
molecular target: CDK2/Cyclin E2 (Homo sapiens); assay: CDK2/CyclinE2 enzymatic activity assay (TR-FRET); details: ATP 1 mM final, read-out: CDK2_E1 IC50

Solved entries (count: 3):
Cc1c(-c2nc(N[C@H]3CCN(S(C)(=O)=O)C[C@H]3C)ncc2F)sc2c1C(=O)NC2(C)C	≤ 100 nM
Cc1c(-c2nc(N[C@H]3CCN(S(C)(=O)=O)C[C@H]3C)ncc2F)sc2c1C(=O)NC2	≤ 100 nM
C[C@@H]1CN(S(=O)(=O)c2cn[nH]c2)CC[C@@H]1Nc1ncc(C(F)(F)F)c(-c2cc3c(s2)C(C)(C)NC3=O)n1	≤ 100 nM

Q: Please indicate IC50 recorded for `C[C@@H]1CN(S(=O)(=O)c2c[nH]cn2)CC[C@@H]1Nc1ncc(C(F)(F)F)c(-c2cc3c(s2)C(C)(C)NC3=O)n1`
Result: ≤ 100 nM

Q: Please indicate IC50 recorded for `C[C@@H]1CN(S(C)(=O)=O)CC[C@@H]1Nc1ncc(C(F)(F)F)c(-c2cc3c(s2)C(C)(C)NC3=O)n1`
Result: ≤ 100 nM

Q: Please indicate IC50 recorded for `CC1(C)NC(=O)c2cc(-c3nc(N[C@@H]4CCN(S(C)(=O)=O)C[C@H]4F)ncc3C(F)(F)F)sc21`
Result: ≤ 100 nM

* * *

test system: OVCAR3 p-RB; test: pRB ICW assay in OVCAR3 cells; assay type: cell-based; conditions: Homo sapiens, OVCAR-3, 2 hours incubation with compound
IC50 for assorted compounds

Solved entries (count: 2):
Cc1c(-c2nc(N[C@H]3CCN(S(C)(=O)=O)C[C@H]3C)ncc2F)sc2c1C(=O)NC2	≤ 100 nM
CS(=O)(=O)N1CCC(Nc2ncc(C(F)(F)F)c(-c3cc4c(s3)C(=O)NC4)n2)CC1	> 500 nM

Q: Please indicate IC50 recorded for `C[C@@H]1CN(S(C)(=O)=O)CC[C@@H]1Nc1ncc(C(F)(F)F)c(-c2cc3c(s2)CNC3=O)n1`
Result: 100 to 500 nM
